# procedureDetails: NCI Yeast Anticancer Drug Screen. Data for the sgs1 mgt1 strain (AID 161);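 further: 0% = growth of cultures given vehicle only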
# conditionNotes: S. cerevisiae sgs1 mgt1 strain, at 50.0 µM, active compounds read high
The panel holds about 79,000 compounds, 15% with a hit somewhere; the sample as a whole holds those more often.
propertyLabel: growth inhibition (%)
State just the number; it will be interpreted in %.

Reported growth inhibition of CCCCCCCCN1CCN(CCCCCCCC)C2CCCCC21 (stereo unspecified) (tested in a mixture with another compound) : 70.2

Reported growth inhibition of CC(=O)[O-].O=C([CH-]C(=O)c1ccccc1)c1ccccc1.O=C([CH-]C(=O)c1ccccc1)c1ccccc1.[Y+3] : 93.6

Reported growth inhibition of O=c1nc2n(CCN(CCCl)CCCl)c3cc(Cl)c(Cl)cc3nc-2c(=O)[nH]1 : 45

Reported growth inhibition of O=C(c1ccccc1)c1c(CC(O)c2cccnc2)n(C(=O)c2ccccc2)c2ccccc12 (stereo unspecified) : 90.7

Reported growth inhibition of COP(=O)(NC(C)=O)OC : -4.5

Continuing:
Reported growth inhibition of CCC[CH2][Pb]([CH2]CCC)([CH2]CCC)[n]1ccnc1 : 93.7

Reported growth inhibition of O=C(CBr)Nc1ccc(Cl)cc1 : 99.6
